Target: Adenosine kinase (Homo sapiens) (UniProt P55263)
Sequence (P55263 2-362 limits assumed): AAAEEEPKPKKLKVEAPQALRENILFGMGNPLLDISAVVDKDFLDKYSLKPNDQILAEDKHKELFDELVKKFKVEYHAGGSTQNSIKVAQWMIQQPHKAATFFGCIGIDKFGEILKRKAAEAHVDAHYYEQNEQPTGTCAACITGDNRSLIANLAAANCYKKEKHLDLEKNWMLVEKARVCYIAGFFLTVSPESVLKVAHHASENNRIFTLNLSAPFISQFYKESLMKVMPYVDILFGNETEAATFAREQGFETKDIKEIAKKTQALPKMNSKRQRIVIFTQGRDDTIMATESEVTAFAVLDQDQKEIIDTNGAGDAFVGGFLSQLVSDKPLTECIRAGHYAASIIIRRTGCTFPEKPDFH
measure.name: log(10'3/IC50)

mol | log(10'3/IC50)
Nc1ncnc2c1c(Cl)cn2[C@@H]1O[C@H](CO)[C@@H](O)[C@H]1O | 3.68
C=C[C@H]1O[C@@H](n2cc(I)c3c(N)ncnc32)[C@H](O)[C@@H]1O | 4
[N-]=[N+]=NC[C@H]1O[C@@H](n2cc(I)c3c(N)ncnc32)[C@H](O)[C@@H]1O | 4.46

1. OC[C@H]1O[C@@H](n2cc(I)c3c(Cl)ncnc32)[C@H](O)[C@@H]1O
2. NC[C@H]1O[C@@H](n2ccc3c(N)ncnc32)[C@H](O)[C@@H]1O
3. NC[C@H]1O[C@@H](n2cc(Br)c3c(N)ncnc32)[C@H](O)[C@@H]1O
Sequence the entries by log(10'3/IC50), beginning with the highest number. The response must list the labels following the requested ordering. 3, 1, 2
